TARGET ENTITY: Cyclooxygenase (Homo sapiens, UniProt P35354+P23219)
ASSAY NAME: Inhibition of human platelet Prostaglandin G/H synthase at the concentration of 1 uM
READOUT LABEL: inhibition (%)

>  <SMILES REPRESENTATION>
Cc1cc(/C=C/c2c(F)cccc2F)cc(C)c1O

>  <inhibition [%]>
73

$$$$
>  <SMILES REPRESENTATION>
Cc1cc(C(=O)/C=C/c2cccs2)cc(C)c1O

>  <inhibition [%]>
25

$$$$
>  <SMILES REPRESENTATION>
Cc1cc(/C=C/c2ccc(C(=O)O)cc2)cc(C)c1O

>  <inhibition [%]>
0

$$$$
>  <SMILES REPRESENTATION>
Cc1cc(/C=C/c2ccncc2)cc(C)c1O

>  <inhibition [%]>
0

$$$$
>  <SMILES REPRESENTATION>
Cc1cc(/C=C/c2ccc3ccccc3c2)cc(C)c1O

>  <inhibition [%]>
37

$$$$
>  <SMILES REPRESENTATION>
Cc1cc(CCC(=O)c2ccc(F)cc2)cc(C)c1O

>  <inhibition [%]>
29

$$$$
>  <SMILES REPRESENTATION>
CCCCOc1ccc(/C=C/c2cc(C)c(O)c(C)c2)cc1

>  <inhibition [%]>
32

$$$$
>  <SMILES REPRESENTATION>
COc1ccc(/C=C/c2cc(C(C)(C)C)c(O)c(C(C)(C)C)c2)cc1

>  <inhibition [%]>
0

$$$$
>  <SMILES REPRESENTATION>
Cc1cc(C(=O)c2cccs2)cc(C)c1O

>  <inhibition [%]>
60

$$$$
>  <SMILES REPRESENTATION>
Cc1cc(/C=C/c2ccccc2C(=O)O)cc(C)c1O

>  <inhibition [%]>
16

$$$$

[a] CC(C)c1cc(/C=C/c2ccc(F)cc2)cc(C(C)C)c1O
[b] COc1ccc(/C=C/c2cc(C(C)C)c(O)c(C(C)C)c2)cc1
# input // returns a or b , whichever has the lower inhibition Give the chosen item's label as your response.
# output a
